species on record: Homo sapiens; test: Selectivity ratio of IC50 for human recombinant MAO-A to IC50 for human recombinant MAO-B
Metric name: Ratio IC50

Task: Given the entry CCN(CC)c1ccc2cc(C(C)=O)c(=O)oc2c1 , report its measured Ratio IC50.
Output: > 5.5

Task: Entry under review: CCOC(=O)c1cc2cc(O)ccc2oc1=O . Reported Ratio IC50?
Output: 4.9

---

species on record: Homo sapiens; assay: Selectivity ratio of IC50 for human recombinant MAO-A to IC50 for human recombinant MAO-B
List of Ratio IC50 values.

Use the examples below as a reference point.
CC(=O)c1cc2c(ccc3ccccc32)oc1=O :: > 50
CCOC(=O)c1cc2ccc(OC3CCCCCC3)cc2oc1=O :: 2160
CC(=O)c1cc2ccccc2oc1=O :: > 6.9
CCOC(=O)c1cc2ccc(OC)cc2oc1=O :: > 4.3
CCOC(=O)c1cc2cc(OC)ccc2oc1=O :: > 4.6
O=C(O)c1cc2cc(I)cc(I)c2oc1=O :: > 5.6
O=C(O)c1cc2ccc(OCc3ccc(Cl)c(Cl)c3)cc2oc1=O :: > 244
O=C(c1ccccc1)c1cc2cc(O)ccc2oc1=O :: 2.9

Task: Quick one: Ratio IC50 of O=C(O)c1cc2ccc(OC3CCCCCC3)cc2oc1=O ?
Output: > 11.6

Task: // Ratio IC50 lookup, key: O=C(c1ccccc1)c1cc2cccc(O)c2oc1=O
Output: 1.5

---

# Ratio IC50 annotations
organism: Homo sapiens; test: Selectivity ratio of IC50 for human recombinant MAO-A to IC50 for human recombinant MAO-B

Use the examples below as a reference point.
CC(=O)c1cc2cc(Cl)ccc2oc1=O :: > 5.6
CC(=O)c1cc2cc(Br)cc(Br)c2oc1=O :: > 500
COc1ccc2cc(C(C)=O)c(=O)oc2c1 :: > 6.5
CCOC(=O)c1cc2ccc(OCc3ccccc3)cc2oc1=O :: > 14300
CCOC(=O)c1cc2ccc(N(CC)CC)cc2oc1=O :: > 2.2
O=C(O)c1cc2cccc(O)c2oc1=O :: < 0.6
O=C(O)c1cc2cc(O)ccc2oc1=O :: < 0.4
Cc1ccc(NNC(=O)c2cc3ccccc3oc2=O)cc1 :: < 0.58

Turning now to a further molecule:
Task: // query Ratio IC50 value for entry O=C(NNc1ccc(Cl)cc1)c1cc2ccccc2oc1=O
Output: 40.4
